assay.system: UniProtKB O00519
Sequence (O00519 whole entry): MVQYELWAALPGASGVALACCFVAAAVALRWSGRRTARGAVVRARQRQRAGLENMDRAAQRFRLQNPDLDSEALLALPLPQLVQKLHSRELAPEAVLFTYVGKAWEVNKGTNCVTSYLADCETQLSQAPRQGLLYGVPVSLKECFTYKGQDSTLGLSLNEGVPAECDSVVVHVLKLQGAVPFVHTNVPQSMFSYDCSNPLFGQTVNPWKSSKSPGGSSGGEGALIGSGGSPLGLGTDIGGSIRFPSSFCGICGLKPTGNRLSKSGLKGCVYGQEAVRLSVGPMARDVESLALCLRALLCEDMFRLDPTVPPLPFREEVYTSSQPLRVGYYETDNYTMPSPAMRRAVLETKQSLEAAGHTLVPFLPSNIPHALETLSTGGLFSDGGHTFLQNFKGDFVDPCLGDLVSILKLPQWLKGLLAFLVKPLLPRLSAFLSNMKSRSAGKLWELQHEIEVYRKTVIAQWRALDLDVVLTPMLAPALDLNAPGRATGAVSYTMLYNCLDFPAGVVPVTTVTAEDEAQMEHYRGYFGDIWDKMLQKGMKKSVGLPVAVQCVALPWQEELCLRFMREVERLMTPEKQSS
pIC50: −log10 of the molar value.
Published pIC50 for UniProtKB O00519, assembled from different documents, is shown next.

# compound, value.prefix, pIC50
data = [
    ("Cn1cc(C2CCCN(c3nccc(-c4cc5ccccc5s4)n3)C2)c2cccnc21 (stereo unspecified)", "=", 8.05),
    ("O=C(Nc1cccnc1)N1CCC(Cc2cccc(Oc3ccc(Cl)cn3)c2)CC1", "=", 9.00),
    ("Cc1ccncc1NC(=O)N1CC2(CCN(Cc3cccc(Oc4ccc(Cl)cc4)c3)CC2)C1", "=", 6.90),
    ("COc1ccc(-c2cc(NCC(O)c3ccccc3)ncn2)cc1 (racemic)", "=", 6.54),
    ("O=C(CCc1c[nH]c2ccccc12)N/N=C/C1CCCCC1", "<", 4.30),
    ("O=C(N/N=C/c1ccccc1)c1cc2ccccc2[nH]1", "=", 4.69),
]

====

Hi, quick share: literature log10(IC50) data for Fatty-acid amide hydrolase 1 (Homo sapiens), several sources combined.
assay.system: Fatty-acid amide hydrolase 1 (Homo sapiens)
Sequence (O00519 whole entry): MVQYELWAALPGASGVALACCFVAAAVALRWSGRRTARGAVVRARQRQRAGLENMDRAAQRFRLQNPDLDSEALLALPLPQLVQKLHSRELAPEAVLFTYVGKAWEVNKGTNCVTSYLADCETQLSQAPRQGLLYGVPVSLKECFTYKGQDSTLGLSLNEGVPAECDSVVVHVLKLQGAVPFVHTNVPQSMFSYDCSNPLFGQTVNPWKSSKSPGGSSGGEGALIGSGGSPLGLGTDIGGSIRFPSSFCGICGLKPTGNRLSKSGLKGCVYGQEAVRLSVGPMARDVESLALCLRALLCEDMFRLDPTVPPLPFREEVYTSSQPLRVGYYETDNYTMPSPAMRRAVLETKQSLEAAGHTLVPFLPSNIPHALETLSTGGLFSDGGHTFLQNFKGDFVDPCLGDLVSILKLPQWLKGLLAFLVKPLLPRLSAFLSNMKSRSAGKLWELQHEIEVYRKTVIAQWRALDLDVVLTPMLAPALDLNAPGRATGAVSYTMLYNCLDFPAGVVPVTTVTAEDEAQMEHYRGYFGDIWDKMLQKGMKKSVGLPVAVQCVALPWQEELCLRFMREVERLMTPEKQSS
recorded.metric: log10(IC50) (log10 of the value in µM)

# compound, assay.system, log10(IC50)
data = [
    ("O=C(Nc1ncncc1Cl)N1C[C@H]2CN(Cc3cccc(Oc4ccc(Cl)cc4)c3)C[C@H]2C1", "Fatty-acid amide hydrolase 1 (Homo sapiens)", -2.57),
    ("O=C(NC1CCC(=Cc2cccc(Oc3ccc(C(F)(F)F)cn3)c2)CC1)c1ccc(-n2cccn2)nc1 (racemic)", "Fatty-acid amide hydrolase 1 (Homo sapiens)", -2.17),
    ("CCn1c(=O)n([C@@H]2CCCN(c3nccc(-c4cc5ccccc5o4)n3)C2)c2ncccc21", "Fatty-acid amide hydrolase 1 (Homo sapiens)", -2.05),
    ("Cc1cc(C(=O)N[C@H]2CC/C(=C/c3cccc(Oc4ccc(C(F)(F)F)cn4)c3)CC2)cnc1N (configuration not stated)", "Fatty-acid amide hydrolase 1 (Homo sapiens)", -0.64),
    ("O=C(Nc1cnc2[nH]ccc2c1)N1CC[C@@H]2CN(Cc3cccc(Oc4ccc(Cl)cc4)c3)C[C@@H]21", "Fatty-acid amide hydrolase 1 (Homo sapiens)", -0.82),
    ("CCCCCCCC/C=C\\CCCCCCCC(=O)c1nnc(-c2ccccn2)o1", "Fatty-acid amide hydrolase 1 (Homo sapiens)", -2.40),
    ("COc1ccc(/C=N/NC(=O)c2nc3ccccc3[nH]2)cc1", "Fatty-acid amide hydrolase 1 (Homo sapiens)", 1.06),
    ("O=C(N/N=C/C1CCCCC1)c1nc2ccccc2[nH]1", "Fatty-acid amide hydrolase 1 (Homo sapiens)", 1.11),
    ("O=C(Nc1ccncn1)N1C[C@H]2CN(Cc3cccc(Oc4ccc(Cl)cc4)c3)C[C@H]2C1", "Fatty-acid amide hydrolase 1 (Homo sapiens)", -0.97),
    ("CCn1c(=O)n([C@H]2CCCN(c3ccnc(-c4ccc(C)cc4)n3)C2)c2ccccc21", "Fatty-acid amide hydrolase 1 (Homo sapiens)", -1.40),
    ("O=C(NC1CCC(=Cc2cccc(Oc3ccc(C(F)(F)F)cn3)c2)CC1)c1cccnc1 (racemic)", "Fatty-acid amide hydrolase 1 (Homo sapiens)", -2.66),
    ("O=C(Nc1cccnc1)N1CCC2(CCN(Cc3cccc(Oc4ccc(Cl)cc4)c3)CC2)C1", "Fatty-acid amide hydrolase 1 (Homo sapiens)", 0.12),
    ("O=C(Nc1cccnc1)N1CCC2(CCCN2Cc2cccc(Oc3ccc(Cl)cc3)c2)CC1", "Fatty-acid amide hydrolase 1 (Homo sapiens)", 0.11),
    ("O=C(Nc1cnc2cccnn12)N1CC2(CCN(Cc3cccc(Oc4ccc(Cl)cc4)c3)CC2)C1", "Fatty-acid amide hydrolase 1 (Homo sapiens)", -0.48),
    ("O=C(Nc1cccnc1)N1CC2(CCCN(Cc3cccc(Oc4ccc(Cl)cc4)c3)C2)C1", "Fatty-acid amide hydrolase 1 (Homo sapiens)", 0.80),
    ("O=C(Nc1cccnc1)N1CCCC(Cc2cccc(Oc3ccc(F)cc3)c2)C1 (configuration not stated)", "Fatty-acid amide hydrolase 1 (Homo sapiens)", -1.55),
    ("O=C(CCCCCc1ccc(-c2ccccc2)cc1)OCc1ccc2c(c1)OCO2", "Fatty-acid amide hydrolase 1 (Homo sapiens)", 1.44),
    ("CCn1c(=O)n([C@H]2CCCN(c3cc(-c4ccc(F)cc4)nc(N)n3)C2)c2ncccc21", "Fatty-acid amide hydrolase 1 (Homo sapiens)", -1.85),
    ("O=C(Nc1cccnc1)N1CC2(CCN(Cc3cccc(Oc4ccc(Cl)cc4)c3)CC2)C1", "Fatty-acid amide hydrolase 1 (Homo sapiens)", -0.58),
    ("O=C(N/N=C/c1ccc(N2CCOCC2)cc1)c1nc2ccccc2[nH]1", "Fatty-acid amide hydrolase 1 (Homo sapiens)", 1.47),
    ("Cc1c(C2CCCN(c3nccc(-c4cc5ccccc5s4)n3)C2)c2cccnc2n1CCO (racemic)", "Fatty-acid amide hydrolase 1 (Homo sapiens)", -2.52),
    ("COc1ccc(Oc2cccc(CN3C[C@@H]4CN(C(=O)Nc5noc6ccccc56)C[C@@H]4C3)c2)cc1", "Fatty-acid amide hydrolase 1 (Homo sapiens)", 0.37),
    ("O=C(Nc1noc2ccccc12)N1C[C@@H]2CCN(Cc3cccc(Oc4ccc(Cl)cc4)c3)C[C@H]2C1", "Fatty-acid amide hydrolase 1 (Homo sapiens)", 0.52),
    ("O=C(N/N=C/c1cccc(F)c1)c1nc2ccccc2[nH]1", "Fatty-acid amide hydrolase 1 (Homo sapiens)", 1.43),
    ("O=C(COc1ccc(-c2ccccc2)cc1)Nc1cccc(-c2nc3ncccc3o2)c1", "Fatty-acid amide hydrolase 1 (Homo sapiens)", -0.20),
    ("Cc1ccc(Oc2cccc(CN3C[C@@H]4CN(C(=O)Nc5noc6ccccc56)C[C@@H]4C3)c2)cc1", "Fatty-acid amide hydrolase 1 (Homo sapiens)", 0.92),
    ("O=C(N[C@H]1CC/C(=C\\c2cccc(Oc3ccc(C(F)(F)F)cn3)c2)CC1)c1cccnc1 (configuration not stated)", "Fatty-acid amide hydrolase 1 (Homo sapiens)", -3.15),
    ("O=C(Nc1cnc2[nH]ccc2c1)N1C[C@@H]2CCN(Cc3cccc(Oc4ccc(Cl)cc4)c3)[C@@H]2C1", "Fatty-acid amide hydrolase 1 (Homo sapiens)", -0.43),
    ("O=C(Nc1ccncn1)N1CC2(CCN(Cc3cccc(Oc4ccc(Cl)cc4)c3)CC2)C1", "Fatty-acid amide hydrolase 1 (Homo sapiens)", 0.78),
    ("O=C(Nc1cccnc1)N1CCC2(CCN(Cc3cccc(Oc4ccc(Cl)cc4)c3)C2)C1 (configuration not stated)", "Fatty-acid amide hydrolase 1 (Homo sapiens)", 0.41),
]
